Below, each entry is listed alongside its reported protein stability index.
assay: protein stability index of a GFP-peptide fusion (yeast GPS) (PSI 1-4); higher = more stable; sorted into four equal gates, so the index is relative within each strain; settings: pdr5∆
# respond with the number and nothing more

// solved cases for protein stability index follow
chain="LKIHQSHLVVPYCPIAS [YMR129W/POM152]" assay_value=1.29
chain="EVWSVSWNLTGTILSSA [YGL100W/SEH1]" assay_value=1.5
chain="LNLLSQNNTTKFHSELQ [RPN12]" assay_value=2.24
chain="FNQEGDYNFKYGIPLEF [PRP8]" assay_value=3.11
chain="FERIMILDPQVTRFTTW [YJL039C/NUP192]" assay_value=1.33
chain="IKSQYYSRISKLKQLLD [YIL149C/MLP2]" assay_value=1.87
chain="FCGKKTVKRGAAGIWTC [RPL43A]" assay_value=1.88
chain="AFVKQKNDSLEKTINDL [YIL149C/MLP2]" assay_value=3.19
chain="VVVIDGKGHLVGRLASV [RPL16A]" assay_value=1.64
chain="EQDILDLIAEQVVTDYN [SSN2]" assay_value=3.44

The sequence listed as VTSEKYPFDKLESWWLV [BRR2] has a reported protein stability index of 2.91

Short answer for AEDLTIAAKTHILRISF [SIN4] : protein stability index was 3.02

Entry under test: DLKSLNVRDDMKPSDNI [SSN2] . Its protein stability index was 2.59
